Values were extracted from ChEMBL document CHEMBL2021782.

Test: Selectivity index, ratio of IC50 for chloroquine-sensitive Plasmodium falciparum GHA to IC50 for bovine PDE5
Threshold rule: Ratio IC50 greater than or equal to 0.01 is True; below that, False.

Reported Ratio IC50 at or above 0.01? O=C1[C@H]2Cc3c([nH]c4ccccc34)[C@@H](c3ccc4c(c3)OCO4)N2C(=O)CN1[C@@H]1CCN(Cc2ccccc2)C1
True

Ratio IC50 >= 0.01 for COc1ccc([C@@H]2c3[nH]c4ccccc4c3C[C@@H]3C(=O)N([C@@H]4CCN(Cc5ccccc5)C4)CC(=O)N23)cc1OC ?
True

Is it the case that Cn1ccnc1CN1CC[C@@H](N2CC(=O)N3[C@H](c4ccc5c(c4)OCO5)c4[nH]c5ccccc5c4C[C@@H]3C2=O)C1 has Ratio IC50 reaching or exceeding 0.01?
False

Identify whether the reported Ratio IC50 of the following compound is 0.01 or greater: CC(C)(C)OC(=O)NCCN1CC[C@@H](N2CC(=O)N3[C@H](c4ccc5c(c4)OCO5)c4[nH]c5ccccc5c4C[C@@H]3C2=O)C1
True

Kindly determine if Ratio IC50 recorded for O=C1[C@H]2Cc3c([nH]c4ccccc34)[C@@H](c3ccc4c(c3)OCO4)N2C(=O)CN1[C@@H]1CCN(Cc2ccc3c(c2)OCO3)C1 is above or exactly 0.01.
True

* * *

Assay: Selectivity ratio of CC50 for human MRC5 SV2 cells to IC50 for chloroquine-sensitive Plasmodium falciparum GHA strain
Assay type: ADME, cell-based
Conditions: read-out: Ratio CC50/IC50
PROPERTY MEASURED: selectivity ratio
Provide a numeric answer; units are not to be included.

Specify selectivity ratio for O=C1[C@H]2Cc3c([nH]c4ccccc34)[C@@H](c3ccc4c(c3)OCO4)N2C(=O)CN1[C@@H]1CCN(CC2CCCC2)C1 and stop.
22

Assign selectivity ratio to the following record: O=C1[C@H]2Cc3c([nH]c4ccccc34)[C@@H](c3ccc4c(c3)OCO4)N2C(=O)CN1[C@@H]1CCN(Cc2ccccc2)C1
20

Tell me selectivity ratio reported for Cn1ccnc1CN1CC[C@@H](N2CC(=O)N3[C@H](c4ccc5c(c4)OCO5)c4[nH]c5ccccc5c4C[C@@H]3C2=O)C1
50

Please report the measured selectivity ratio for COc1ccc([C@@H]2c3[nH]c4ccccc4c3C[C@@H]3C(=O)N([C@@H]4CCN(Cc5ccccc5)C4)CC(=O)N23)cc1OC
76
